tested on: SW982; assay: cells; type: functional, cell-based; conditions: Homo sapiens
Description: SANGER: Inhibition of human SW982 cell growth in a cell viability assay.
Quick list: IC50 per entry.

These recorded examples may help you get a feel for the data.
Molecule: CC[C@@]1(O)C(=O)OCc2c1cc1n(c2=O)Cc2cc3ccccc3nc2-1 [CAMPTOTHECIN]
Quantity Measured: IC50
Data Value: 4.06 nM

Molecule: CC(O)(CS(=O)(=O)c1ccc(F)cc1)C(=O)Nc1ccc(C#N)c(C(F)(F)F)c1 (centres undefined) [BICALUTAMIDE]
Quantity Measured: IC50
Data Value: > 1020 nM

Molecule: Cc1nc(Nc2ncc(C(=O)Nc3c(C)cccc3Cl)s2)cc(N2CCN(CCO)CC2)n1 [DASATINIB]
Quantity Measured: IC50
Data Value: 11.1 nM

Input: Write IC50 of COc1cc(Nc2c(C#N)cnc3cc(OCCCN4CCN(C)CC4)c(OC)cc23)c(Cl)cc1Cl [BOSUTINIB] ; system used: SW982;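 also: growth inhibition of SW982 cells, read out with a cell viability assay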
Output: > 2000 nM

* * *

tested on: OPM-2; assay: cells; format: functional, cell-based; conditions: Homo sapiens;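 also: growth of OPM-2 cells measured with a viability assay, IC50 for suppression of proliferation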
Description: SANGER: Inhibition of human OPM-2 cell growth in a cell viability assay.
pIC50: −log10 of the molar value.
# maps each entry to its pIC50

Input: Determine from records and report pIC50 for Cc1[nH]c(/C=C2\C(=O)Nc3ccc(S(=O)(=O)Cc4c(Cl)cccc4Cl)cc32)c(C)c1C(=O)N1CCC[C@@H]1CN1CCCC1 [PHA-665752]
Output: < 5.70

Input: // Input: Cc1n[nH]c2ccc(-c3cncc(OC[C@@H](N)Cc4c[nH]c5ccccc45)c3)cc12 [A-443654] . Output its pIC50 only.
Output: 6.50

Input: Respond only with pIC50 recorded for Fc1cc(-c2cc[nH]/c(=N/c3ccc(-n4cnc(N5CCOCC5)n4)cc3)n2)cc(N2CCOCC2)c1
Output: 6.29

Input: Name the recorded pIC50 of the molecule listed here: CCNC(=O)c1noc(-c2cc(C(C)C)c(O)cc2O)c1-c1ccc(CN2CCOCC2)cc1 [LUMINESPIB]
Output: < 6.59

Input: Consider the molecule C/C=C(/C)C(=O)O[C@H]1C(C)=C2[C@H]([C@@H]1OC(=O)CCCCCCC)[C@@](C)(OC(C)=O)C[C@H](OC(=O)CCC)[C@@]1(O)[C@H]2OC(=O)[C@@]1(C)O [THAPSIGARGIN] and give its recorded pIC50.
Output: > 8.70

Input: Please indicate pIC50 recorded for N#C/C(=C1/Nc2ccccc2S1)c1ccnc(NCCc2cccnc2)n1
Output: < 5.10

* * *

tested on: EB-3; experiment: cells; assay type: functional, cell-based; conditions: Homo sapiens;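 also: human EB-3 cells, growth inhibition read out via a cell viability assay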
Description: SANGER: Inhibition of human EB-3 cell growth in a cell viability assay.
Listed below: pIC50 values for each entry.
Schema: pIC50 number; meaning minus log10 of the concentration expressed in molar units.

Smiles Entry: CO[C@@]12[C@H](COC(N)=O)C3=C(C(=O)C(C)=C(N)C3=O)N1C[C@@H]1N[C@@H]12
pIC50: 5.50

Now for a further molecule.
Input: Return reported pIC50. Input molecule: Fc1cc(-c2cc[nH]/c(=N/c3ccc(-n4cnc(N5CCOCC5)n4)cc3)n2)cc(N2CCOCC2)c1
Output: 5.74

* * *

system: SBC-5; assay: cells; type: functional, cell-based; conditions: Homo sapiens;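 also: cell viability assay read-out, IC50 is the concentration that inhibits growth of the cells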
Description: SANGER: Inhibition of human SBC-5 cell growth in a cell viability assay.
IC50 for assorted compounds
Report as a plain number; the unit nM is understood.

Compound: CC[C@]1(O)C[C@@H]2CN(CCc3c([nH]c4ccccc34)[C@@](C(=O)OC)(c3cc4c(cc3OC)N(C)[C@H]3[C@@](O)(C(=O)OC)[C@H](OC(C)=O)[C@]5(CC)C=CCN6CC[C@]43[C@@H]65)C2)C1 [VINBLASTINE]
IC50 / nM: 7.47
--
Compound: CC[C@@]1(O)C(=O)OCc2c1cc1n(c2=O)Cc2cc3ccccc3nc2-1 [CAMPTOTHECIN]
IC50 / nM: 32.1
--
Compound: C/C=C(/C)C(=O)O[C@H]1C(C)=C2[C@H]([C@@H]1OC(=O)CCCCCCC)[C@@](C)(OC(C)=O)C[C@H](OC(=O)CCC)[C@@]1(O)[C@H]2OC(=O)[C@@]1(C)O [THAPSIGARGIN]
IC50 / nM: 8.08

// moving on: another record for IC50
Input: Give the value of IC50 reported for the following: N#C/C(=C1/Nc2ccccc2S1)c1ccnc(NCCc2cccnc2)n1
Output: 6890
